molecular target: D2R (Rattus norvegicus, UniProt P61169); test: Competition binding of [3H]-YM-09151-2 to D2-like receptors in rat striatal membranes
Sequence (P61169 whole entry): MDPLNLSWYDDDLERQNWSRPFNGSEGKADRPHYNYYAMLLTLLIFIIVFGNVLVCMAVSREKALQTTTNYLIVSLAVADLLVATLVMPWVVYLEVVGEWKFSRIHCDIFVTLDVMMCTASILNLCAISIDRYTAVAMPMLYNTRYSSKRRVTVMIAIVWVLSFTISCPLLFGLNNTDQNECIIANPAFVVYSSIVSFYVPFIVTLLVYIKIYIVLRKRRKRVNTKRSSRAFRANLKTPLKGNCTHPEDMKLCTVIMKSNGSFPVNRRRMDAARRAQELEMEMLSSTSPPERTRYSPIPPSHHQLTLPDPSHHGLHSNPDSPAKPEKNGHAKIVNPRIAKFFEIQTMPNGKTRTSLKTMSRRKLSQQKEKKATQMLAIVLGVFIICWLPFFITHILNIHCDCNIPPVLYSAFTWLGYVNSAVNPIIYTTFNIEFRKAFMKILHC
Reported log10(Ki) by item:
readout type: log10(Ki) (log10 of the value in nM)

smiles representation: Cc1cc2c(cc1S(=O)(=O)Nc1ccc(CN3CCN(c4cccc(Cl)c4Cl)CC3)cc1)OCO2
log10(Ki): 2.60
--
smiles representation: O=S(=O)(Nc1ccc(CN2CCN(c3cccc(Cl)c3Cl)CC2)cc1)c1ccc2c(c1)OCO2
log10(Ki): 2.30
--
smiles representation: Cc1cc2c(cc1S(=O)(=O)Nc1ccc(CN3CCN(c4ccccc4)CC3)cc1)OCO2
log10(Ki): 2.64
--
smiles representation: COc1ccccc1N1CCN(Cc2ccc(NS(=O)(=O)c3ccc4c(c3)OCO4)cc2)CC1
log10(Ki): 2.00
--
smiles representation: COc1ccccc1N1CCN(Cc2ccc(NS(=O)(=O)c3cc4c(cc3C)OCO4)cc2)CC1
log10(Ki): 1.90
--
smiles representation: O=S(=O)(Nc1ccc(CN2CCN(c3ccccc3)CC2)cc1)c1ccc2c(c1)OCO2
log10(Ki): 2.91

Numbers sourced from paper PMC9405847.
